# protocol-notes: Drug level in Caco-2 cells assessed as total recovery rate at 50 uM after 150 mins
# Type: ADME, cell-based
# condition-context: human, read-out: Drug uptake
Catalogue of recovery at 2.5 h, 50 µM readings, one per entry.
Please respond with the number in % and leave the unit unwritten.

{"smiles-structure": "Cc1cc(=O)c2c(O)cc(O[C@@H]3O[C@H](COC(=O)C4=CC[C@H](C(C)(C)O)CC4)[C@@H](O)[C@H](O)[C@H]3O)cc2o1", "parameter-measured": "recovery at 2.5 h, 50 µM", "reported-result": 54.6}

recovery at 2.5 h, 50 µM reading for `CC(C)C[C@H](c1c(O)c(C=O)c(O)c(C=O)c1O)[C@@]1(C)CC[C@@H]2[C@@H]1[C@H]1[C@@H](CC[C@@]2(C)O)C1(C)C` : 59.5

Record summary for `CC(C)C[C@@H](c1c(O)c(C=O)c(O)c(C=O)c1O)[C@@]1(C)CC[C@@H]2[C@@H]1[C@H]1[C@@H](CC[C@@]2(C)O)C1(C)C` : reported recovery at 2.5 h, 50 µM = 68.5
